// data source = paper PMC12586182

Tested on: PFSK-1
procedure_text: Cell viability assay (ATPlite)
Type: cell-based
assay_context: Homo sapiens; PFSK-1 cell line, 72 hours incubation

molecule: O=C(c1ccc(Oc2ccccc2)cc1Cl)c1c[nH]c2ncnc(N[C@@H]3CC[C@@H](CO)OC3)c12 [nemtabrutinib]
test_system: PFSK-1
measurement_units: µM
IC50: 11.3

---

Listing of entries alongside the reported Percentage inhibition of kinase enzyme activity.
test_system: ROS (Homo sapiens)
Construct: purchased Carna Biosciences
Sequence (P08922 28-2347): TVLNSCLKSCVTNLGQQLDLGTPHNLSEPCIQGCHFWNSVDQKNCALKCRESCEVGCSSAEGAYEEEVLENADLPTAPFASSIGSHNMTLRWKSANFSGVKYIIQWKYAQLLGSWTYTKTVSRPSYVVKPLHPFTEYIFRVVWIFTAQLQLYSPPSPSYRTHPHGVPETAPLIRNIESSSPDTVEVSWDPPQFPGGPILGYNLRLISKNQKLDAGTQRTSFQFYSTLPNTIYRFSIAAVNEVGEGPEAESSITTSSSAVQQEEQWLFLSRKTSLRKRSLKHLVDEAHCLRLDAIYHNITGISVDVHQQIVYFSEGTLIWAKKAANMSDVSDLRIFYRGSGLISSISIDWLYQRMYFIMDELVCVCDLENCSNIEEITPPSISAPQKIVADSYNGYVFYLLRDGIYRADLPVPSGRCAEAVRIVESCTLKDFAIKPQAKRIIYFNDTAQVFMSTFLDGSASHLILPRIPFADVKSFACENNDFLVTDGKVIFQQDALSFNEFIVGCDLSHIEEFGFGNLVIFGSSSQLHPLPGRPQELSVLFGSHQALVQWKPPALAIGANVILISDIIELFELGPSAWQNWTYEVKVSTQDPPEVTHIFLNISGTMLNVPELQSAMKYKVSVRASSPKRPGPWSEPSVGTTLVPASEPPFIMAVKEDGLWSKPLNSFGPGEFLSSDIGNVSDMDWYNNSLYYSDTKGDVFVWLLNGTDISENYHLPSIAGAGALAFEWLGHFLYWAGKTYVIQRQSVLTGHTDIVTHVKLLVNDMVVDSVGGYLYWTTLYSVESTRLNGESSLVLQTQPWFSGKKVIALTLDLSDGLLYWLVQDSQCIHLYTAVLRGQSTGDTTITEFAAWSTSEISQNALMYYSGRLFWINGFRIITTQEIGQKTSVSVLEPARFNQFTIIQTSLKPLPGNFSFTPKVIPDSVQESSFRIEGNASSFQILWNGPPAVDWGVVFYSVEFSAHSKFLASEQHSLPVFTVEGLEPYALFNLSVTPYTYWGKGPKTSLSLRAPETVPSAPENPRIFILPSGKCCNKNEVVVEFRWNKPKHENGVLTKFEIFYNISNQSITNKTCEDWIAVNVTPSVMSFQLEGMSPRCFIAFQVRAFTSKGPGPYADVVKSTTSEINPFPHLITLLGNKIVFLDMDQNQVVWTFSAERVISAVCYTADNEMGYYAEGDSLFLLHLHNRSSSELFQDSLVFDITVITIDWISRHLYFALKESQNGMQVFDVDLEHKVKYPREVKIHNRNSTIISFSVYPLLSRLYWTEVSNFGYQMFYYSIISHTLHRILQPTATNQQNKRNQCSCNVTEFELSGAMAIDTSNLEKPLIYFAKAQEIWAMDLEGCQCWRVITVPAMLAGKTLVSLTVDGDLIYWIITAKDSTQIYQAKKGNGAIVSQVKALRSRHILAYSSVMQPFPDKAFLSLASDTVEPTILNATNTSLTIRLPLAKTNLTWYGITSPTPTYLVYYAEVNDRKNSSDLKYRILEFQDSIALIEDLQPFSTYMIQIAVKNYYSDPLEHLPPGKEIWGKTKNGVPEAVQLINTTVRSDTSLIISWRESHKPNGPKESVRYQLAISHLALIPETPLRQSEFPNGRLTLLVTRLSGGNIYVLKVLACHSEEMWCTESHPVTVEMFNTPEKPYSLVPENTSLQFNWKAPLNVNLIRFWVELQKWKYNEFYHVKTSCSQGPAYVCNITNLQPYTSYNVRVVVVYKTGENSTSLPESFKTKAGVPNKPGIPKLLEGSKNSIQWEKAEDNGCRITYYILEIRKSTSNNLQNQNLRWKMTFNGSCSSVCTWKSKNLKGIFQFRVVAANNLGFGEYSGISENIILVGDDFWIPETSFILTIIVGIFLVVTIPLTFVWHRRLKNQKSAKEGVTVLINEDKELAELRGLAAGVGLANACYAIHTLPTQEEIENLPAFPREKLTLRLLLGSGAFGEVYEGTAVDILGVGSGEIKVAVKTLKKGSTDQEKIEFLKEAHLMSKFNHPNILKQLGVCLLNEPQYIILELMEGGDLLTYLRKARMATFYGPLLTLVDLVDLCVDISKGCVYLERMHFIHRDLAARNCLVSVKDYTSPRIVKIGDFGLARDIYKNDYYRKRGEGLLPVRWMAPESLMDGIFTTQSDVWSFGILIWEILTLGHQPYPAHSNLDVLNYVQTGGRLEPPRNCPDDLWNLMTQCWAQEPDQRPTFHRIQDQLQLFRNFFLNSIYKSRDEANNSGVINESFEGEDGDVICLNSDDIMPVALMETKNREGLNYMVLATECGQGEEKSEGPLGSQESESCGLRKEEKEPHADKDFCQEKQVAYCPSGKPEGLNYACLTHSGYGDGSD
procedure_text: Kinase panel profiling at 1 µmol/L (mobility shift assay, Carna)
Format: biochemical
assay_context: 1 µmol/L of BTK inhibitor
endpoint_name: Percentage inhibition of kinase enzyme activity (%)

compound: C=CC(=O)N1CCC[C@@H](n2nc(-c3ccc(Oc4ccccc4)cc3)c3c(N)ncnc32)C1 [ibrutinib]
test_system: ROS (Homo sapiens)
recorded_value: 4.82
--
compound: COc1ccc(F)cc1C(=O)NCc1ccc(-c2nn([C@@H](C)C(F)(F)F)c(N)c2C(N)=O)cc1 [pirtobrutinib]
test_system: ROS (Homo sapiens)
recorded_value: 3.20
--
compound: CC#CC(=O)N1CCC[C@H]1c1nc(-c2ccc(C(=O)Nc3ccccn3)cc2)c2c(N)nccn12 [acalabrutinib]
test_system: ROS (Homo sapiens)
recorded_value: 1.79
--
compound: O=C(c1ccc(Oc2ccccc2)cc1Cl)c1c[nH]c2ncnc(N[C@@H]3CC[C@@H](CO)OC3)c12 [nemtabrutinib]
test_system: ROS (Homo sapiens)
recorded_value: 60.67

---

Test system: NCC-IT
procedure_text: Cell viability assay (ATPlite)
Format: cell-based
assay_context: Homo sapiens, NCCIT; NCC-IT cell line, 72 hours incubation
endpoint_name: IC50

chemical_structure: O=C(c1ccc(Oc2ccccc2)cc1Cl)c1c[nH]c2ncnc(N[C@@H]3CC[C@@H](CO)OC3)c12
recorded_value: 4.62 µM

---

test_system: PKCα (Homo sapiens, UniProt P17252)
Construct: purchased Carna Biosciences
procedure_text: Kinase panel profiling at 1 µmol/L (mobility shift assay, Carna)
Type: biochemical
assay_context: 1 µmol/L of BTK inhibitor
Quick reference: Percentage inhibition of kinase enzyme activity of the listed items.
endpoint_name: Percentage inhibition of kinase enzyme activity (%)

chemical_structure: CC#CC(=O)N1CCC[C@H]1c1nc(-c2ccc(C(=O)Nc3ccccn3)cc2)c2c(N)nccn12
test_system: PKCα (Homo sapiens, UniProt P17252)
recorded_value: -16.89
--
chemical_structure: C=CC(=O)N1CCC[C@@H](n2nc(-c3ccc(Oc4ccccc4)cc3)c3c(N)ncnc32)C1
test_system: PKCα (Homo sapiens, UniProt P17252)
recorded_value: 0.74
--
chemical_structure: O=C(c1ccc(Oc2ccccc2)cc1Cl)c1c[nH]c2ncnc(N[C@@H]3CC[C@@H](CO)OC3)c12
test_system: PKCα (Homo sapiens, UniProt P17252)
recorded_value: -0.64
--
chemical_structure: COc1ccc(F)cc1C(=O)NCc1ccc(-c2nn([C@@H](C)C(F)(F)F)c(N)c2C(N)=O)cc1
test_system: PKCα (Homo sapiens, UniProt P17252)
recorded_value: 11.69

---

Entries and their measured Percentage inhibition of kinase enzyme activity follow.
test_system: JNK3 (Homo sapiens, UniProt P53779)
Construct: purchased Carna Biosciences
Sequence (P53779 whole entry): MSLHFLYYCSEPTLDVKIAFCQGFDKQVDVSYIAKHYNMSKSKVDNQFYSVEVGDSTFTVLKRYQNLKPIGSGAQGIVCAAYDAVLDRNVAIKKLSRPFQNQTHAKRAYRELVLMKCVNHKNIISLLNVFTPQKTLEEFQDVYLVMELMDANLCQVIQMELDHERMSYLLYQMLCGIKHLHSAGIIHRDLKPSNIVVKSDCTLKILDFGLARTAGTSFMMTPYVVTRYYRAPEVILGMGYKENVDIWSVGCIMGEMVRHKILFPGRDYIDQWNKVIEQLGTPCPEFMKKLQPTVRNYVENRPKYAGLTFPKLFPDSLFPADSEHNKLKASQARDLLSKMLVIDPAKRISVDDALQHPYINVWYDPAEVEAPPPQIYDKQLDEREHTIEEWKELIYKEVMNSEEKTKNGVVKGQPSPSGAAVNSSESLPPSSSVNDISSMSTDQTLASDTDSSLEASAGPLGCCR
procedure_text: Kinase panel profiling at 1 µmol/L (mobility shift assay, Carna)
Format: biochemical
assay_context: 1 µmol/L of BTK inhibitor
endpoint_name: Percentage inhibition of kinase enzyme activity (%)

chemical_structure: COc1ccc(F)cc1C(=O)NCc1ccc(-c2nn([C@@H](C)C(F)(F)F)c(N)c2C(N)=O)cc1
measurement_units: %
recorded_value: 0.49
//
chemical_structure: C=CC(=O)N1CCC[C@@H](n2nc(-c3ccc(Oc4ccccc4)cc3)c3c(N)ncnc32)C1
measurement_units: %
recorded_value: 0.98
//
chemical_structure: O=C(c1ccc(Oc2ccccc2)cc1Cl)c1c[nH]c2ncnc(N[C@@H]3CC[C@@H](CO)OC3)c12
measurement_units: %
recorded_value: -2.93
//
chemical_structure: CC#CC(=O)N1CCC[C@H]1c1nc(-c2ccc(C(=O)Nc3ccccn3)cc2)c2c(N)nccn12
measurement_units: %
recorded_value: -0.89

---

test_system: SRM (Homo sapiens)
Construct: purchased Carna Biosciences
procedure_text: Kinase panel profiling at 1 µmol/L (mobility shift assay, Carna)
Type: biochemical
assay_context: 1 µmol/L of BTK inhibitor
Percentage inhibition of kinase enzyme activity values, listed per item
endpoint_name: Percentage inhibition of kinase enzyme activity (%)

chemical_structure: C=CC(=O)N1CCC([C@@H]2CCNc3c(C(N)=O)c(-c4ccc(Oc5ccccc5)cc4)nn32)CC1
measurement_units: %
recorded_value: 57.79
//
chemical_structure: CC#CC(=O)N1CCC[C@H]1c1nc(-c2ccc(C(=O)Nc3ccccn3)cc2)c2c(N)nccn12
measurement_units: %
recorded_value: 39.49
//
chemical_structure: COc1ccc(F)cc1C(=O)NCc1ccc(-c2nn([C@@H](C)C(F)(F)F)c(N)c2C(N)=O)cc1
measurement_units: %
recorded_value: 18.61
//
chemical_structure: C=CC(=O)N1CCC[C@@H](n2nc(-c3ccc(Oc4ccccc4)cc3)c3c(N)ncnc32)C1
measurement_units: %
recorded_value: 102.20
//
chemical_structure: O=C(c1ccc(Oc2ccccc2)cc1Cl)c1c[nH]c2ncnc(N[C@@H]3CC[C@@H](CO)OC3)c12
measurement_units: %
recorded_value: 102.16

---

Measured Percentage inhibition of kinase enzyme activity by item
test_system: EPHA7 (Homo sapiens, UniProt Q15375)
Construct: purchased Carna Biosciences
Sequence (Q15375 28-998): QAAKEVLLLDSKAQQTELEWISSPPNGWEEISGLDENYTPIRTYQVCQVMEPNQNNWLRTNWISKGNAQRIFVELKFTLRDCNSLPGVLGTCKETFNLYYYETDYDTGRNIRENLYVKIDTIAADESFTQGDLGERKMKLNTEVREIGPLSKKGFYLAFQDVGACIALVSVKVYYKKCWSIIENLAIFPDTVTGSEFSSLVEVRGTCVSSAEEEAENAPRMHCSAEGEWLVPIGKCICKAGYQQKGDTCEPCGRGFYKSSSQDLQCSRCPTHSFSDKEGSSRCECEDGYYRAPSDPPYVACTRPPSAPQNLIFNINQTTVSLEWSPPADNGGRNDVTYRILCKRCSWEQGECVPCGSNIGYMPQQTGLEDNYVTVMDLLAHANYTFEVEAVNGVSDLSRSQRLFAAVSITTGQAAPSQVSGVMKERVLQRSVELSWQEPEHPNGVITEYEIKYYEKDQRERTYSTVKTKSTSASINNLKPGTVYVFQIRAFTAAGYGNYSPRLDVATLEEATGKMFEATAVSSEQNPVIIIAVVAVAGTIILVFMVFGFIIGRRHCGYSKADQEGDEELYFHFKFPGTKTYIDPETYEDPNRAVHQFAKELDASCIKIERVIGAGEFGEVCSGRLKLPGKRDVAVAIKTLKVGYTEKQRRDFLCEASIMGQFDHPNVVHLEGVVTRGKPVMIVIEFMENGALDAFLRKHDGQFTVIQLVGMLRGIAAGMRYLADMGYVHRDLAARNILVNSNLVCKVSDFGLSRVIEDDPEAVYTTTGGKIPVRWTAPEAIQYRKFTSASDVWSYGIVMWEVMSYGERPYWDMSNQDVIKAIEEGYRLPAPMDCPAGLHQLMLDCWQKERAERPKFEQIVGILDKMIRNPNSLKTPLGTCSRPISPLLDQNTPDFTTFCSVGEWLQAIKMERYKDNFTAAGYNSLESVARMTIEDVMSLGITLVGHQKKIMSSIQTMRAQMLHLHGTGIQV
procedure_text: Kinase panel profiling at 1 µmol/L (mobility shift assay, Carna)
Format: biochemical
assay_context: 1 µmol/L of BTK inhibitor
endpoint_name: Percentage inhibition of kinase enzyme activity (%)

chemical_structure: C=CC(=O)N1CCC[C@@H](n2nc(-c3ccc(Oc4ccccc4)cc3)c3c(N)ncnc32)C1
measurement_units: %
recorded_value: 6.99

chemical_structure: CC#CC(=O)N1CCC[C@H]1c1nc(-c2ccc(C(=O)Nc3ccccn3)cc2)c2c(N)nccn12
measurement_units: %
recorded_value: -3.54

chemical_structure: O=C(c1ccc(Oc2ccccc2)cc1Cl)c1c[nH]c2ncnc(N[C@@H]3CC[C@@H](CO)OC3)c12
measurement_units: %
recorded_value: 94.05

chemical_structure: COc1ccc(F)cc1C(=O)NCc1ccc(-c2nn([C@@H](C)C(F)(F)F)c(N)c2C(N)=O)cc1
measurement_units: %
recorded_value: -9.86

chemical_structure: C=CC(=O)N1CCC([C@@H]2CCNc3c(C(N)=O)c(-c4ccc(Oc5ccccc5)cc4)nn32)CC1
measurement_units: %
recorded_value: -7.84

---

test_system: PDGFRα (Homo sapiens)
pIC50: −log10 of the molar value.

chemical_structure: O=C(c1ccc(Oc2ccccc2)cc1Cl)c1c[nH]c2ncnc(N[C@@H]3CC[C@@H](CO)OC3)c12
test_system: PDGFRα (Homo sapiens)
pIC50: 7.91

---

Each record here notes measured Percentage inhibition of kinase enzyme activity.
test_system: CHK1 (Homo sapiens)
Construct: purchased Carna Biosciences
Sequence (O14757 whole entry): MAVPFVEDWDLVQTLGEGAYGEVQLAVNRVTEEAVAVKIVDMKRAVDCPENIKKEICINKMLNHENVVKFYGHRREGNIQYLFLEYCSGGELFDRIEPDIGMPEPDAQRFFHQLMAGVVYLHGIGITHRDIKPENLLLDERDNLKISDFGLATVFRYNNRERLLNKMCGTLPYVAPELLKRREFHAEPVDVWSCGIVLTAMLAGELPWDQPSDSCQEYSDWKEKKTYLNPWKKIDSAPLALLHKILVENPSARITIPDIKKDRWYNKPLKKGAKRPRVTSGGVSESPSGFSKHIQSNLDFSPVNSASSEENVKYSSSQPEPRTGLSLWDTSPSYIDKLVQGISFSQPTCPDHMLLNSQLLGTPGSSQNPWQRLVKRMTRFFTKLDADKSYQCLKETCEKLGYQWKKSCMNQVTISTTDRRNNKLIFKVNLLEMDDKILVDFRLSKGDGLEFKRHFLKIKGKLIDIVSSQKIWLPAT
procedure_text: Kinase panel profiling at 1 µmol/L (mobility shift assay, Carna)
Type: biochemical
assay_context: 1 µmol/L of BTK inhibitor
endpoint_name: Percentage inhibition of kinase enzyme activity

molecule: COc1ccc(F)cc1C(=O)NCc1ccc(-c2nn([C@@H](C)C(F)(F)F)c(N)c2C(N)=O)cc1 [pirtobrutinib]
recorded_value: 8.67%
//
molecule: O=C(c1ccc(Oc2ccccc2)cc1Cl)c1c[nH]c2ncnc(N[C@@H]3CC[C@@H](CO)OC3)c12 [nemtabrutinib]
recorded_value: 12.30%
//
molecule: CC#CC(=O)N1CCC[C@H]1c1nc(-c2ccc(C(=O)Nc3ccccn3)cc2)c2c(N)nccn12 [acalabrutinib]
recorded_value: -6.98%
//
molecule: C=CC(=O)N1CCC[C@@H](n2nc(-c3ccc(Oc4ccccc4)cc3)c3c(N)ncnc32)C1 [ibrutinib]
recorded_value: 10.13%

---

test_system: CK1δ (Homo sapiens, UniProt P48730)
Construct: purchased Carna Biosciences
Sequence (P48730 whole entry): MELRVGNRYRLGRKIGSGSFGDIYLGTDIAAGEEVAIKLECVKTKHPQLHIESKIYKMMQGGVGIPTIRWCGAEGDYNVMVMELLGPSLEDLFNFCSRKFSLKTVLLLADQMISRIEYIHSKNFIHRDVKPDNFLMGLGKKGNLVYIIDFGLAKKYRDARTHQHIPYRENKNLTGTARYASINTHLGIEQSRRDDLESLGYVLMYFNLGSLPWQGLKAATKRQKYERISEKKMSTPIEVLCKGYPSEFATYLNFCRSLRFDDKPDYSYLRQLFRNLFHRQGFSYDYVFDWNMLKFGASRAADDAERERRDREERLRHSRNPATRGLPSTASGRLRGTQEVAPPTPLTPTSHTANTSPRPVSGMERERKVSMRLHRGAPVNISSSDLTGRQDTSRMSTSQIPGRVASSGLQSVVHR
procedure_text: Kinase panel profiling at 1 µmol/L (mobility shift assay, Carna)
Format: biochemical
assay_context: 1 µmol/L of BTK inhibitor
endpoint_name: Percentage inhibition of kinase enzyme activity (%)

chemical_structure: CC#CC(=O)N1CCC[C@H]1c1nc(-c2ccc(C(=O)Nc3ccccn3)cc2)c2c(N)nccn12
recorded_value: 2.76
--
chemical_structure: O=C(c1ccc(Oc2ccccc2)cc1Cl)c1c[nH]c2ncnc(N[C@@H]3CC[C@@H](CO)OC3)c12
recorded_value: 25.76
--
chemical_structure: C=CC(=O)N1CCC[C@@H](n2nc(-c3ccc(Oc4ccccc4)cc3)c3c(N)ncnc32)C1
recorded_value: 7.46
--
chemical_structure: COc1ccc(F)cc1C(=O)NCc1ccc(-c2nn([C@@H](C)C(F)(F)F)c(N)c2C(N)=O)cc1
recorded_value: 6.20

---

test_system: biotinylated, inactive MEK1 (Homo sapiens, UniProt Q02750)
Sequence (Q02750 whole entry): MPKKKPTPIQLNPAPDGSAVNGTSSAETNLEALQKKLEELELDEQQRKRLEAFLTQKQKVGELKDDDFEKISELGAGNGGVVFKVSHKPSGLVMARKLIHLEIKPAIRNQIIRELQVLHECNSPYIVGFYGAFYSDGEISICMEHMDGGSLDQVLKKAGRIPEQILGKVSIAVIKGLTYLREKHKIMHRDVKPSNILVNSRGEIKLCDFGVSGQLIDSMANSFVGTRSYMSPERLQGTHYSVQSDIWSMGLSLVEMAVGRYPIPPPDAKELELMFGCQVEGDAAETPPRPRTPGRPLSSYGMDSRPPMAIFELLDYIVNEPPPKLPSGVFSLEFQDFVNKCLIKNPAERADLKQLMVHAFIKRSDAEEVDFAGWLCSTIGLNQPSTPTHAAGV
procedure_text: biochemical

chemical_structure: O=C(c1ccc(Oc2ccccc2)cc1Cl)c1c[nH]c2ncnc(N[C@@H]3CC[C@@H](CO)OC3)c12
Kd: 10 nM
